# STUDY TARGET: trypsin-activated recombinant human renin (Homo sapiens)
# Sequence (P00797 67-406): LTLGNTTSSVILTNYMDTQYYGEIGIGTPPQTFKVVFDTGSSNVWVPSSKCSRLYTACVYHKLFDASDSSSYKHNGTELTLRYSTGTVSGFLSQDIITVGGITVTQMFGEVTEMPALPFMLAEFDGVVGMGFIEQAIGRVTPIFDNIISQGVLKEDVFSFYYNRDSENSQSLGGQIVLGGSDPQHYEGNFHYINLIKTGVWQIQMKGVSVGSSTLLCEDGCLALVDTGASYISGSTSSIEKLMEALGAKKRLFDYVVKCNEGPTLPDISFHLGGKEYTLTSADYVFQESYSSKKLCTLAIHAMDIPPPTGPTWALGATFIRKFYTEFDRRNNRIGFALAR
# METHOD SUMMARY: In vitro IC50 for renin, fluorescence increase of internally quenched peptide substrate (protocol of Example 2)
# MEASUREMENT CONDITIONS: protocol described in Example 2; DABCYL/EDANS peptide substrate, pH 7.0, rt
MEASURED PROPERTY: pIC50
Units for pIC50: none; it is -log10 of a concentration expressed in mol/L.

Output reported pIC50 of the compound CCCCNC(=O)C[C@H](O)[C@H](CC1CCCCC1)NC(=O)N1CCC[C@@H]([C@@H](OCCNC(=O)OC)c2cccc(Cl)c2)C1 [Example 1] on trypsin-activated recombinant human renin (Homo sapiens). 6.95

Sourced from patent US7858624B2
